Cited source: ChEMBL document CHEMBL3507680

# method.summary: Human HepG2 cell viability assay in 384 well format
# Assay type: toxicity, cell-based
# Parameters: dose 125 nL, time 70.5 hour; concentration not given beside the values
# recorded.conditions: HepG2 cells, read-out: Inhibition
Please respond with reported cytotoxicity at 70.5 h for every item in the list.

Example cases with answers are listed next.
compound=c1csc(CN2CCO[C@@H]3CN(C4CCOCC4)C[C@@H]3C2)c1 value_kind="cytotoxicity at 70.5 h" readout_value=-10%
compound="Cc1ccc(-c2noc(C3CCN3C(=O)c3cc[nH]n3)n2)s1 (centres undefined)" value_kind="cytotoxicity at 70.5 h" readout_value=-14.3%
compound="Cc1c(Br)c(C(=O)NC(C)c2ccccc2)nn1C (centres undefined)" value_kind="cytotoxicity at 70.5 h" readout_value=-13%
compound="Cc1ccc(N2CCCC(NCC(=O)NC(C3CC3)C3CC3)C2)nn1 (centres undefined)" value_kind="cytotoxicity at 70.5 h" readout_value=-8.53%
compound="CC(=O)NCCCNC(=O)N(C)C(C)Cc1ccc(Cl)cc1 (centres undefined)" value_kind="cytotoxicity at 70.5 h" readout_value=-8.06%
compound=Cc1ccc(F)c(C(=O)N2C[C@@H](C(=O)O)[C@H](c3ccncc3)C2)c1Cl value_kind="cytotoxicity at 70.5 h" readout_value=-8.75%
compound=Cc1ccc(CN2CCN(Cc3ccncc3)CC2=O)cc1 value_kind="cytotoxicity at 70.5 h" readout_value=-0.378%
compound=Cc1cnc(-c2nc(C3CCN(Cc4ccccc4Cl)CC3)no2)cn1 value_kind="cytotoxicity at 70.5 h" readout_value=-3.18%
compound=O=C(c1cnccn1)N1CCC2(CC1)CCN(Cc1ccccn1)C2=O value_kind="cytotoxicity at 70.5 h" readout_value=19.9%
compound=CCN(CC)c1ncc(S(=O)(=O)c2cccc(C)c2)c(N)n1 value_kind="cytotoxicity at 70.5 h" readout_value=25.6%

Please look at the items below and tell me cytotoxicity at 70.5 h for each one, in order.
1. CC(C)NC(=O)NCCCc1cccc(F)c1
2. Cc1ncncc1C(=O)N1CCCC(n2ccnc2C)C1 (centres undefined)
3. O=C(CNC(=O)C1CC1)NCc1ccc(Cl)s1
4. Cn1nnc2c1CCN(CC1CC1)C2COCc1ccccc1 (centres undefined)
5. Cc1cc(C)n(CC2CN(CC(=O)Nc3ccncc3)CCO2)n1 (centres undefined)
6. CCc1noc(CN(CCS(C)(=O)=O)C(C)(C)C)n1
7. COc1cc(N2C[C@H](C(=O)NC3CC3)[C@@H]3CCO[C@@H]3C2)ncn1
8. COc1cc2ncn(Cc3ncc[nH]3)c(=O)c2cc1OC

["0.142%", "1.79%", "1.44%", "-6.64%", "-2.52%", "20.2%", "-7.61%", "-23.4%"]

Please look at the items below and tell me cytotoxicity at 70.5 h for each one, in order.
1. CC(C)c1cc2c(s1)NC(c1ccccc1)NC2=O (centres undefined)
2. O=C1[C@@H]2CCN(CC3CCOCC3)C[C@@H]2OCCN1c1ccccc1

-12.1%
1.16%

Please look at the items below and tell me cytotoxicity at 70.5 h for each one, in order.
1. Cc1cc(N2CCN(CCO)CC2)nc(-c2ccncc2)n1
2. Cc1noc(C2(C)CCCN(C(=O)C(C)C)C2)n1 (centres undefined)
3. COc1cccc(CN2CCC3(CCN(c4ncc(C)cn4)C3)C2=O)c1 (centres undefined)

["0.374%", "-0.687%", "-0.0299%"]

Need cytotoxicity at 70.5 h of CC1CN(C(=O)NCCNc2cnccn2)CCO1 (centres undefined) , thanks.
25.6%

* * *

# method.summary: Human HepG2 cell viability assay in 384 well format
# Format: toxicity, cell-based
# Parameters: dose 125 nL, time 70.5 hour; concentration not given beside the values
# recorded.conditions: HepG2 cells, read-out: Inhibition
value.kind: cytotoxicity at 70.5 h (%)
One number for each entry, in %.

Example cases with answers are listed next.
compound="CCC(NCc1cc[nH]n1)c1nc(C(F)(F)F)cs1 (stereo unspecified)" uom=% readout_value=-4.23
compound="Cc1nc(CN2CCN(C(C)C(=O)NC3CCCC3)CC2)cs1 (stereo unspecified)" uom=% readout_value=-5.82
compound="CCc1nc(C2CCCN2Cc2ccno2)no1 (stereo unspecified)" uom=% readout_value=-14.3
compound=N#CC1(C(=O)NCCCNc2ccc(C(F)(F)F)cn2)CCCC1 uom=% readout_value=5.77
compound=COCc1nnc(C(=O)N(C)Cc2cnc3ccccn23)o1 uom=% readout_value=-3.55

Need cytotoxicity at 70.5 h of "O=C(c1ccco1)N(c1ccc(F)cn1)C1CCOCC1" , thanks.
26.4

* * *

# method.summary: Human HepG2 cell viability assay in 384 well format
# Type: toxicity, cell-based
# Set-up: dose 125 nL, time 70.5 hour; concentration not given beside the values
# recorded.conditions: HepG2 cells, read-out: Inhibition
Please respond with reported cytotoxicity at 70.5 h for every item in the list.
Numbers only, in %.

Example cases with answers are listed next.
compound="CN1CC(=O)N(c2ccccc2)CC12CCN(C(=O)c1cccs1)C2 (stereo unspecified)" uom=% readout_value=-5.55
compound="Cc1ccc(N2CCCN(C(=O)C(C(C)C)n3cncn3)CC2)nn1 (stereo unspecified)" uom=% readout_value=1.73
compound=COc1cc(N2C[C@H](OCc3cccnc3)[C@H]3OCCC[C@H]32)ncn1 uom=% readout_value=3.36

Please look at the items below and tell me cytotoxicity at 70.5 h for each one, in order.
1. Cn1ccc(C(=O)Nc2cccc(-c3ccc4c(c3)CCO4)n2)cc1=O
2. CCO[C@@H]1CC[C@H]2[C@H]1OCCN2CCOCc1ccccc1
3. N#Cc1nccnc1NC1CCN(c2ccccc2OC(F)F)C1 (stereo unspecified)

1. -20.6
2. -17.9
3. -5.2

* * *

Please respond with reported cytotoxicity at 70.5 h for every item in the list.
# method.summary: Human HepG2 cell viability assay in 384 well format
# Assay type: toxicity, cell-based
# Set-up: dose 125 nL, time 70.5 hour; concentration not given beside the values
# recorded.conditions: HepG2 cells, read-out: Inhibition
Numbers only, in %.

Example cases with answers are listed next.
compound=CN(C)C(=O)N1C[C@H](Oc2ccccn2)[C@H]2OCCC[C@H]21 value_kind="cytotoxicity at 70.5 h" readout_value=-7.83
compound=Cn1nc(C#N)c2c1CN(C(=O)c1nc[nH]n1)CCC2 value_kind="cytotoxicity at 70.5 h" readout_value=-1.6
compound=COCCCC(=O)Nc1cccnc1N1CCCCC1 value_kind="cytotoxicity at 70.5 h" readout_value=-10.4
compound=O=C(O)c1ccc(CCNC(=O)C2(O)Cc3ccccc3C2)cc1 value_kind="cytotoxicity at 70.5 h" readout_value=-12.7
compound=Cc1cc(CN2C[C@@H]3COC[C@]3(CNC(=O)c3ccno3)C2)no1 value_kind="cytotoxicity at 70.5 h" readout_value=-4.13
compound="Cc1csc(C2CCCCN2C(=O)c2cc(C)n(C)n2)n1 (configuration not stated)" value_kind="cytotoxicity at 70.5 h" readout_value=25.5

Please look at the items below and tell me cytotoxicity at 70.5 h for each one, in order.
1. O=C1O[C@@H]2CN(c3ccncc3)C[C@@H]2N1CCCc1ccc(F)cc1
2. O=C(Nc1ccnc(OC2CCOC2)c1)c1cccs1 (configuration not stated)
3. CCc1nc(CSCc2csc(CS(C)(=O)=O)n2)cs1
4. O=C(c1ccccc1F)N1CC[C@@H]2CN(c3ncccn3)CCO[C@@H]2C1
5. Cc1ccc([C@@H]2CN(C(=O)c3ccon3)C[C@H]2NC(=O)C2CC2)cc1
6. COc1ccc(OC2CCN(C(=O)c3ccc(C)[nH]c3=O)CC2)cc1

-6.08
-4.23
-1.17
4.95
-0.162
-5.37

Please look at the items below and tell me cytotoxicity at 70.5 h for each one, in order.
1. COc1c(C2CCCN2C(=O)Cc2c(C)noc2C)c(C)nn1C (configuration not stated)
2. CCN(CCNC(=O)c1cccc(C)c1C)C1CC1
3. O=C1NCCN1C1CCCN(Cc2coc(-c3ccc(F)cc3)n2)C1 (configuration not stated)
4. CCOc1ccccc1NC(=O)NCCc1ccoc1
5. CN(C)S(=O)(=O)c1ccc(CNC(=O)C2CC2)cc1
6. CCCC(C)C(=O)N1CCC(n2cccc2C(=O)OC)CC1 (configuration not stated)
7. Cn1c(CN2CCC(O)CC2)nnc1C1CCCN(C(=O)C2CNC2)C1 (configuration not stated)
8. COc1cnc(C2(O)CCN(C(=O)c3scnc3C)CC2)c(OC)n1

1: 11; 2: -4.1; 3: 31; 4: 12.2; 5: 1.13; 6: -2.08; 7: -5.47; 8: 6.58

* * *

# method.summary: Human HepG2 cell viability assay in 384 well format
# Type: toxicity, cell-based
# Set-up: dose 125 nL, time 70.5 hour; concentration not given beside the values
# recorded.conditions: HepG2 cells, read-out: Inhibition
Please respond with reported cytotoxicity at 70.5 h for every item in the list.
Answers are plain numbers, in %.

Example cases with answers are listed next.
compound=Cc1occc1-c1nc(NC2CCCC2)ncc1-c1ccccn1 readout_value=1.09
compound="O=C(NCc1cccnc1-n1cncn1)C1CC2(CCNCC2)CN1 (stereo unspecified)" readout_value=-4.56
compound=CC(C)n1nc(Cn2cccc2)c2c1CN(Cc1ccoc1)C2 readout_value=-4.83
compound=CN(C)C(=O)[C@H]1C[C@H]2OCC[C@H]2N(Cc2ccccn2)C1 readout_value=-2.93
compound="COC(=O)c1cccc(C(=O)N2CCCCC2CCn2ccnc2C)c1 (stereo unspecified)" readout_value=-1.17

Next compound, please.
Need cytotoxicity at 70.5 h of "Cc1cc2nc(SCC(=O)N3CCCC3)n(-c3ccccc3)c(=O)c2[nH]1" , thanks.
-21.9
